The origin of these recorded values is ChEMBL document CHEMBL3433997.

The molecules listed here are annotated with their inhibition.
- subject of test: Hexose transporter 1 (Plasmodium falciparum) (UniProt O97467)
- assay text: ST_JUDE_LEISH: Cytotoxicity at 2uM final concentration against transgenic Leishmania Mexicana promastigotes LmPfHT that are glucose transport deficient and complemented with the Plasmodium falciparum hexose transporter. Activity is measured by DNA content using SYBR green in vitro
- Assay type: functional
readout: inhibition (%)

1) CCOC(=O)c1nc(-c2cc(Cl)nc(Cl)c2)[nH]c1NC(=S)NCCCN1CCOCC1 : 1.96
2) CCS(=O)(=O)c1ccc(/C(=N/OC)c2ccc[nH]2)cc1 : 0.06
3) CC1CCCCC1N(C)C1CCN(CCCNC(=O)C=Cc2ccccc2Cl)CC1 (centres undefined) : -0.24
4) CC1(C)CCC(C)(C)c2c1ccc(C1CCN(CCCCNC(=O)c3ccc(-c4ccc(Cl)cc4)cc3)CC1)c2O : 1.66
5) COc1ccc2nccc([C@@H](O)CN3CCC(NC(=O)c4cc5cccnc5[nH]4)CC3)c2c1 : 3.5
6) Cc1cc(=NN=CC=Cc2ccccc2)c2cc(F)ccc2[nH]1 : 0.85
7) CN(C)Cc1ccc(-c2cc3c(Nc4ccc(OCc5cccc(F)c5)c(Cl)c4)ncnc3s2)[nH]1 : 2.19
8) CCc1nc(N)nc(N)c1-c1ccc(C(C)C)cc1 : 2.31
9) CC(C)Cn1c(N)cc(=O)n(C)c1=O : 3.45
10) CN(C)c1cc2c(Nc3ccc4nc(Cc5ccccc5)[nH]c4c3)ncnc2cn1 : 5.87
11) COc1ccc(CNC2CCN(C)CC2)cc1-c1ccc(S(=O)(=O)NC2CCC2)c(C)c1 : -0.22
12) Cc1[nH]c(C)c(-c2ccc(Oc3ccc(Cl)cc3)cc2)c(=O)c1Br : 0.25
13) CCCC(C)N(Cc1ccc(C(C)(C)C)cc1)C(=O)c1cccc(OC)c1 (centres undefined) : -0.47
14) CCCCn1c(=N)c(C(=O)NCc2cccnc2)cc2c(=O)n3cccc(C)c3nc21 : 5.85
15) COc1ccc2ncc(F)c(CCN3CC[C@@H](CNCc4ccc5c(c4C)OCCO5)C3)c2n1 : 35.3
16) CSc1ccc(C=CC(=O)NC(=O)c2ccccc2O)cc1 : 2.44
17) Cc1ccc(C2CCN(CCCCNC(=O)c3ccc(NC(=O)c4ccc(Cl)cc4)cc3)CC2)c(OCC(F)(F)F)c1 : 1.32
18) O=C(Nc1ccccc1)Nc1cccc(-c2cc(CNCCc3ccccc3)sc2-c2ccncc2)c1 : -0.54
19) COc1ccc(C=NNc2cc(C)nc3ccc(OC)cc23)c(OC)c1 : 7.55
20) CC(=O)Nc1cccc(-c2cn(-c3ccc(OCc4cccc(F)c4)c(Cl)c3)c3ncncc23)c1 : 0.08
21) C=CCOC(=O)N1CCC(CNCc2ccc(-c3cccc(-c4nc5cc(F)ccc5[nH]4)c3)cc2)C1 (centres undefined) : 2.36
22) CN1CC(c2ccccc2)c2cc(O)c(CN3CCCCC3)cc2CC1Cc1ccccc1 (centres undefined) : 7.19
23) CCOC(=O)c1ccc(NC(=O)NNC(=O)c2ccc(CCN3CCC(c4nc(COCC(F)(F)F)c(-c5ccc(F)cc5)o4)CC3)cc2)cc1 : 1.22
24) CCOc1cc2ncnc(Nc3ccc(OCc4c(F)cccc4F)c(OC)c3)c2cc1OCC : 2.29
25) O=C(n1c(-c2cc3ccccc3n2C(=O)C(F)(F)F)cc2ccccc21)C(F)(F)F : 1.94
26) CC(C)(C(=O)Nc1ccc(C2CCC(NCC3CC3)CC2)c(Cl)c1)c1ccc(C(F)(F)F)cc1 (centres undefined) : 0.31
27) O=C(NCCCCN1CCC(c2cccc3ccccc23)CC1)c1ccc(NC(=O)c2ccc(Cl)cc2)cc1 : 0.25
28) O=C(NCCCN1CCC(NC(=O)c2ccc(-c3cccnc3)cc2)CC1)c1ccc(Cl)c(Cl)c1 : 1.38
29) COc1ccc2nccc([C@@H](O)CN3CCC(NC(=O)CCC(=O)c4cc(C(C)(C)C)ccc4OC)CC3)c2c1 : 4.7
30) O=C(Nc1ccc(OC2CCN(Cc3ccccc3)CC2)c(Cl)c1)c1ccco1 : 10.1
31) CCCN1CCN(CCNC(=O)c2cccc(Nc3nccc(Nc4ccc(Oc5ccccc5)cc4)n3)c2)CC1 : 0.74
32) Cc1cccc2nc(-c3ccc(-c4cccc(NC(=O)Cc5c[nH]cn5)c4)cc3)[nH]c12 : 3.26
33) Nc1nc(N)c2c(ccc3c2ccn3Cc2ccc3c(c2)OCO3)n1 : 97.5
34) COc1cc2c(cc1OC)CN(c1cc(N)c3cc(OC)c(OC)cc3n1)CC2 : 0.25
35) Cc1nc(NC(=N)N)nc2ccc(C(C)(C)C)cc12 : 0.81
36) Fc1ccc2[nH]c(-c3ccc(-c4cccc(CN5CCC(CCN6CCCCC6)CC5)c4)cc3)nc2c1 : 1.77
37) O=C(Nc1cccc(-c2ccc(CN3CCCC3)cc2)c1)c1ccc(F)cc1 : 0.3
38) CCOC(=O)N(C)/N=C/[C@H](CCc1ccccc1)NC(=O)[C@H](CC(C)C)NC(=O)c1cc2cccc(OC)c2o1 : 3.47
39) O=C(/C=C/c1ccc(Cl)c(Cl)c1)NCCCCCN1CCC(c2c[nH]c3ccc(O)cc23)CC1 : 1.31

====

- subject of test: Solute carrier family 2, facilitated glucose transporter member 1 (Homo sapiens) (UniProt P11166)
- Sequence (P11166 whole entry): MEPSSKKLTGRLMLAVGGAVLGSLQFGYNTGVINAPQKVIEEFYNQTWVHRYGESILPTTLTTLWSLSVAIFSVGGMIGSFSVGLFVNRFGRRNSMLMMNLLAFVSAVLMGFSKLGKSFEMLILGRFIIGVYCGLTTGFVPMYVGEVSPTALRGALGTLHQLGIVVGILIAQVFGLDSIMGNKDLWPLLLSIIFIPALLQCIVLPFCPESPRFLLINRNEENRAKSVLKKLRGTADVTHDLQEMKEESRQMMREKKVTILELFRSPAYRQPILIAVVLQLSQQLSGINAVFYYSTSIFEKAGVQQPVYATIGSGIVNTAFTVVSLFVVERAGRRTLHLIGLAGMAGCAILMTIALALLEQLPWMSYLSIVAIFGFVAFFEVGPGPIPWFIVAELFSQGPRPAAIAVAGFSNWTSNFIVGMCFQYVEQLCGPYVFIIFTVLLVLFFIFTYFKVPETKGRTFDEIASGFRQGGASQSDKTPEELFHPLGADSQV
- assay text: ST_JUDE_LEISH: Cytotoxicity at 2uM final concentration against transgenic Leishmania Mexicana promastigotes LmGLUT1 that are glucose transport deficient and complemented with the human glucose transporter GLUT1. Activity is measured by DNA content using SYBR green in vitro
- Format: functional
readout: inhibition (%)

1. CC(C)c1sc(-c2ccc(C(C)(C)C)cc2)nc1C(=O)NCCCN1CCCC1=O : 1.02
2. CN1CCCN(Cc2ccc(-c3ccc(NC(=O)c4ccc(Cl)cc4)cc3)cc2)CC1 : 63.1
3. Cc1ccccc1C1CCN(C2CCC(NC(=O)/C=C/c3cccc(Cl)c3F)CC2)CC1 (stereo not given) : 3.45
4. Cc1cc(O)nc(NC(=N)NOCc2ccccc2)n1 : -1.66
5. COc1ccc2c(=NN=Cc3cccc(F)c3)cc(C)[nH]c2c1 : -1.29
6. Cc1cccc(C)c1CNc1cccc(-c2nc(C)c(C)[nH]2)c1 : 5.39
7. CCn1ccc2c(N3CCCCS3(=O)=O)cc(C(=O)N[C@@H](Cc3ccccc3)[C@H](O)CNC(C)(C)CCCC(C)C)cc21 : 2.17
8. Cc1[nH]c(C)c(-c2cccc(-c3ccc(OC(F)(F)F)cc3)c2)c(=O)c1Br : 1.89
9. O=C(NCc1ccccc1)C1Cc2c([nH]c3ccc(Br)cc23)C2(CCN(Cc3ccccc3)CC2)N1 (stereo not given) : 2.61
10. Cc1nc(N)nc(N)c1OCc1ccc(Cl)c(Cl)c1 : 0.66

====

// reported inhibition per item
- subject of test: Hexose transporter 1 (Plasmodium falciparum)
- assay text: ST_JUDE_LEISH: Cytotoxicity at 2uM final concentration against transgenic Leishmania Mexicana promastigotes LmPfHT that are glucose transport deficient and complemented with the Plasmodium falciparum hexose transporter. Activity is measured by DNA content using SYBR green in vitro
- Assay type: functional
readout: inhibition (%)

1) c1ccc(Oc2ccc(Nc3ccnc4cc(-c5cccc(CNCCN6CCOCC6)c5)ccc34)cc2)cc1 : -0.08
2) CCOC(=O)C(=O)N1c2ccc(OCC)cc2-c2c(ssc2=S)C1(C)C : 0.3
3) CCCCCCN1CCCN(Cc2cccc(C(=O)Nc3ccc(C(C)(C)C)cc3)c2)CC1 : 0.8
4) CN(C)c1nc(NN=Cc2cc(Cl)ccc2O)nc(Nc2ccc(F)cc2)n1 : 11
5) O=S(=O)(NCCN1CCCC1)c1cccc(-c2ccc(CNCc3ccccc3)cc2)c1 : 2.05
6) Cc1nc(O)c2c(ccc3ccc(CNc4ccc(C(=O)N[C@@H](CCC(=O)O)C(=O)O)cc4)cc32)n1 : 2.36
7) O=C(Nc1ccc(Cl)cc1)Nc1ccc(Cn2ncc(N3CCCNCC3)c(Cl)c2=O)cc1 : 5.96
8) O=C(CSc1nc(-c2ccccc2Cl)ns1)Nc1cccc(F)c1 : -0.93
9) N#Cc1ccc(N2CCN(Cc3cccc(-c4cccc(-c5nc6cc(F)ccc6[nH]5)c4)c3)CC2)nc1 : 5.99

====

- subject of test: Glucose transporter (Leishmania mexicana) (UniProt O61059)
- assay text: ST_JUDE_LEISH: Cytotoxicity at 2uM final concentration against transgenic Leishmania Mexicana promastigotes LmGT2 that are glucose transport deficient and complemented with the L. Mexicana glucose transporter 2. Activity is measured by DNA content using SYBR green in vitro
- Assay type: functional
// inhibition lookup, one value per entry
readout: inhibition

1) O=C(CSc1nc2ccc([N+](=O)[O-])cc2s1)Nc1ccccc1-c1ccccc1 : -1.03%
2) Cc1ccc(C)c2sc(N3CCN(C(=O)c4ccc([N+](=O)[O-])o4)CC3)nc12 : 7.78%
3) COc1ccc(NC(=O)Nc2cccc(-c3cccc(-c4nc5cc(F)ccc5[nH]4)c3)c2)cc1 : 0.62%
4) CN(CCCCCNC(=O)/C=C/c1ccc(Cl)c(Cl)c1)CCCCc1c[nH]c2ccccc12 : 1.11%
5) FC(F)(F)c1cccc(CCNc2nccc(NCc3ccccc3Cl)n2)c1 : 0.1%
6) CCOc1ccc(-c2n[nH]c(C(F)(F)F)c2-c2ccccc2OC)c(O)c1 : 1.29%
7) CCOC(=O)c1cnc2c(OC)cc(OC)c(Cl)c2c1Nc1ccccc1 : 6.19%
8) N=C(N)c1cc(Cl)cc(NC(=O)Nc2cc(Cl)cc(C(=N)N)c2)c1 : 1.53%
9) N=C(N)NC(=O)Nc1cc(Br)c(Br)c(Br)c1 : 1.74%
10) COc1ccc(CNCc2ccccc2)cc1-c1ccc(OC)c(S(=O)(=O)NCCN2CCCC2)c1 : 3.45%
